SYSTEM_TESTED: GABAA receptor
ASSAY_COMMENT: Steroid inhibition of [35S]-TBPS binding
TEST_CONDITIONS: rat brain cortical membranes, 3 nM [35S]-TBPS, in the presence of 5 mM GABA
pIC50: −log10 of the molar value.

MOLECULAR_STRING: C[C@@]1(O)CC[C@@]2(C)[C@@H](CC[C@@H]3[C@@H]2CC[C@]2(C)[C@@H](N)CC[C@@H]32)C1
pIC50: < 6.30
--
MOLECULAR_STRING: C[C@H](c1ccccc1)N(C)C(=O)[C@H]1CC[C@H]2[C@@H]3CC[C@@H]4C[C@](C)(O)CC[C@@H]4[C@H]3CC[C@]12C
pIC50: 7.30 to 8.00
--
MOLECULAR_STRING: C[C@@]1(O)CC[C@H]2[C@H](CC[C@@H]3[C@@H]2CC[C@]2(C)[C@@H](c4ccccc4)CC[C@@H]32)C1
pIC50: 6.30 to 7.00
--
MOLECULAR_STRING: CN(Cc1ccccn1)C(=O)[C@H]1CC[C@H]2[C@@H]3CC[C@@H]4C[C@](C)(O)CC[C@@H]4[C@H]3CC[C@]12C
pIC50: < 6.30
--
MOLECULAR_STRING: CCOC[C@@]1(O)CC[C@H]2[C@H](CC[C@@H]3[C@@H]2CC[C@]2(C)[C@@H](C(=O)N4CCC[C@@H]4c4ncco4)CC[C@@H]32)C1
pIC50: < 6.30

====

IC50 values, listed per item
SYSTEM_TESTED: GABAA receptor
ASSAY_COMMENT: Steroid inhibition of [35S]-TBPS binding
TEST_CONDITIONS: rat brain cortical membranes, 3 nM [35S]-TBPS, in the presence of 5 mM GABA

COMPOUND: C[C@@]1(O)CC[C@H]2[C@H](CC[C@@H]3[C@@H]2CC[C@]2(C)[C@@H](C4CCCC4)CC[C@@H]32)C1 [Compound 109]
SYSTEM_TESTED: GABAA receptor
IC50: > 500 nM
//
COMPOUND: CCOC[C@@]1(O)CC[C@H]2[C@@H](CC[C@@H]3[C@@H]2CC[C@]2(C)[C@@H](C(=O)CNc4ccccc4)CC[C@@H]32)C1 [Compound 86]
SYSTEM_TESTED: GABAA receptor
IC50: 100 to 500 nM
//
COMPOUND: COC[C@]12CC[C@](O)(C(F)(F)F)C[C@H]1CC[C@H]1[C@@H]3CC[C@H](C(=O)N(C)Cc4ccccc4)[C@@]3(C)CC[C@@H]12 [Compound 79]
SYSTEM_TESTED: GABAA receptor
IC50: 100 to 500 nM
//
COMPOUND: CCOC[C@@]1(O)CC[C@H]2[C@H](CC[C@@H]3[C@@H]2CC[C@]2(C)[C@@H](C(=O)N(C)[C@@H](CC)c4ccc(F)cc4)CC[C@@H]32)C1 [Compound 57]
SYSTEM_TESTED: GABAA receptor
IC50: 100 to 500 nM
//
COMPOUND: C[C@@]1(O)CC[C@H]2[C@H](CC[C@@H]3[C@@H]2CC[C@]2(C)[C@@H](c4ccc(C#N)cc4)CC[C@@H]32)C1 [Compound 110]
SYSTEM_TESTED: GABAA receptor
IC50: 10 to 50 nM
//
COMPOUND: CCOC[C@@]1(O)CC[C@H]2[C@@H](CC[C@@H]3[C@@H]2CC[C@]2(C)[C@@H](C(=O)CN(C)c4ccccc4)CC[C@@H]32)C1 [Compound 85]
SYSTEM_TESTED: GABAA receptor
IC50: > 500 nM
//
COMPOUND: C[C@@]1(O)CC[C@H]2[C@H](CC[C@@H]3[C@@H]2CC[C@]2(C)[C@@H](C(=O)N4CCCOCC4)CC[C@@H]32)C1 [Compound 6]
SYSTEM_TESTED: GABAA receptor
IC50: > 500 nM
//
COMPOUND: C[C@@]1(O)CC[C@H]2[C@H](CC[C@@H]3[C@@H]2CC[C@]2(C)[C@@H](C(=O)Nc4ccccc4)CC[C@@H]32)C1 [Compound 3]
SYSTEM_TESTED: GABAA receptor
IC50: < 10 nM
//
COMPOUND: CN([C@H]1CC[C@H]2[C@@H]3CC[C@H]4C[C@](C)(O)CC[C@]4(C)[C@H]3CC[C@]12C)S(=O)(=O)c1ccccc1 [Compound 96]
SYSTEM_TESTED: GABAA receptor
IC50: > 500 nM
//
COMPOUND: C[C@@]1(O)CC[C@@]2(C)[C@@H](CC[C@@H]3[C@@H]2CC[C@]2(C)[C@@H](Nc4ccccc4F)CC[C@@H]32)C1 [Compound 91]
SYSTEM_TESTED: GABAA receptor
IC50: > 500 nM

====

SYSTEM_TESTED: GABAA receptor
ASSAY_COMMENT: Steroid inhibition of [35S]-TBPS binding
TEST_CONDITIONS: rat brain cortical membranes, 3 nM [35S]-TBPS, in the presence of 5 mM GABA

MOLECULAR_STRING: C[C@@]1(O)CC[C@H]2[C@H](CC[C@@H]3[C@@H]2CC[C@]2(C)[C@@H](C(=O)N4CC[C@H](c5ccccc5)C4)CC[C@@H]32)C1
IC50: 50 to 100 nM
//
MOLECULAR_STRING: CN([C@H]1CC[C@H]2[C@@H]3CC[C@H]4C[C@](C)(O)CC[C@]4(C)[C@H]3CC[C@]12C)S(C)(=O)=O
IC50: > 500 nM
//
MOLECULAR_STRING: CCOC[C@@]1(O)CC[C@H]2[C@H](CC[C@@H]3[C@@H]2CC[C@]2(C)[C@@H](C(=O)N[C@H](C)c4ccc(C#N)cc4)CC[C@@H]32)C1
IC50: 100 to 500 nM
//
MOLECULAR_STRING: COC[C@]12CC[C@@](C)(O)C[C@H]1CC[C@H]1[C@@H]3CC[C@H](C(=O)CN(C)c4ccccc4)[C@@]3(C)CC[C@@H]12
IC50: 10 to 50 nM
//
MOLECULAR_STRING: CCOC[C@@]1(O)CC[C@H]2[C@H](CC[C@@H]3[C@@H]2CC[C@]2(C)[C@@H](C(=O)N(C)[C@H](CC)c4ccc(F)cc4)CC[C@@H]32)C1
IC50: 100 to 500 nM
//
MOLECULAR_STRING: C[C@H](c1ccc(C#N)cc1)N(C)C(=O)[C@H]1CC[C@H]2[C@@H]3CC[C@@H]4C[C@@](O)(C(F)(F)F)CC[C@@H]4[C@H]3CC[C@]12C
IC50: 100 to 500 nM
//
MOLECULAR_STRING: C[C@@]1(O)CC[C@@]2(C)[C@@H](CC[C@@H]3[C@@H]2CC[C@]2(C)[C@@H](NS(C)(=O)=O)CC[C@@H]32)C1
IC50: > 500 nM
//
MOLECULAR_STRING: C[C@@]1(O)CC[C@H]2[C@H](CC[C@@H]3[C@@H]2CC[C@]2(C)[C@@H](C(=O)N4CCCc5ccccc54)CC[C@@H]32)C1
IC50: 100 to 500 nM
//
MOLECULAR_STRING: C[C@@]1(O)CC[C@H]2[C@H](CC[C@@H]3[C@@H]2CC[C@]2(C)[C@@H](C(=O)N4CCCCCC4)CC[C@@H]32)C1
IC50: 100 to 500 nM

Hello, the source for this data is patent US12655175B2, in case you need it.
